All values here come from ChEMBL document CHEMBL3988442.

For each entry below, report its Percent Effect value.
- tested on: Tyrosyl-tRNA synthetase, putative (Trypanosoma cruzi (strain CL Brener)) (UniProt Q4DSP6)
- Sequence (Q4DSP6 as listed by the source): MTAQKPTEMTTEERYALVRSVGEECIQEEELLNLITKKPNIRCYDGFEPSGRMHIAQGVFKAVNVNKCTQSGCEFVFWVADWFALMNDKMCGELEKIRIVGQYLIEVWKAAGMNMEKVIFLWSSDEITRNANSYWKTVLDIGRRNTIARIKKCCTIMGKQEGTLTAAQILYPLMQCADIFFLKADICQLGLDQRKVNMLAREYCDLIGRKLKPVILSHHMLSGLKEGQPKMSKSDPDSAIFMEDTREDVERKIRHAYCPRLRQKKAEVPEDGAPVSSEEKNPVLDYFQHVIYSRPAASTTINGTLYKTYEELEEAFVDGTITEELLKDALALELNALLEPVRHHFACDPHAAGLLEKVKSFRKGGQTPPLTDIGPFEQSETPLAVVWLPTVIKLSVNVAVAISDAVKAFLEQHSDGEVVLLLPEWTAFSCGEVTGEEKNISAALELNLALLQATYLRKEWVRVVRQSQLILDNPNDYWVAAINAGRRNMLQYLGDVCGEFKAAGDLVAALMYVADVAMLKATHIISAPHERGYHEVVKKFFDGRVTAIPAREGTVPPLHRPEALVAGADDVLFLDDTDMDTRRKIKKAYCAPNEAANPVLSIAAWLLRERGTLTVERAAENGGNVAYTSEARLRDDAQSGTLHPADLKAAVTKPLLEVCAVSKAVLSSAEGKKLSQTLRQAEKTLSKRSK
- test protocol: Trypanosoma cruzi tyrosyl tRNA synthetase (TcYRS) SOP
- Assay type: functional
- Parameters: scale not given: direction of the effect not stated beside the values
- condition set: 30 µM
Form entry: value (%) — number only.

So, c1nc(CCC2CCCN2)cc(N2CCCOCC2)n1 (configuration not stated) ? Its Percent Effect was 6.49

Per the records, this molecule ( `Cc1nc(CN2C(=O)C[C@H]3[C@H]2CCN3C2CCOCC2)cs1` ) has Percent Effect equal to 11.1

For this molecule ( `CCn1c(Cn2cncn2)nnc1C1CCN(C(=O)CCSC)CC1` ), measured Percent Effect is 13.6

GET /value?item= `COc1ccccc1CC(=O)NS(C)(=O)=O` &field=Percent Effect returns 14.6

Documented Percent Effect of O=C(CCn1cnnc1)N1CCCC(c2ncc[nH]2)C1 (configuration not stated) : 12.5

response.value for OCCC1CN(C2CCC2)CCN1C1CCCC1 (configuration not stated) (field: Percent Effect) = 7.69

// recorded Percent Effect for OC(CN1CCN(c2ncccn2)CC1)c1cccc(F)c1 (configuration not stated) : 16.1

Per the records, this molecule ( COCCCn1c(CN2CCCC(O)C2)cnc1S(=O)(=O)C1CCCC1 (configuration not stated) ) has Percent Effect equal to 11.1

Short answer for Cc1nccnc1N1CCC2(CCCN(C3CCOCC3)C2=O)C1 (configuration not stated) : Percent Effect was -3.7

The molecule `CCCNC(=O)c1sccc1N(C)S(=O)(=O)c1ccc(Cl)cc1` showed Percent Effect equal to -2.6

Lookup result for CSCc1cccc(C(=O)N2CCN(CC(C)O)CC2)c1 (configuration not stated) ; measured Percent Effect: -2.44

O=C1N(Cc2ccccc2F)CCCC12CCN(C1CCSCC1)C2 (configuration not stated) yielded Percent Effect of 8.64

====

- Tested on: Trypanosoma cruzi
- test protocol: Trypanosoma cruzi phosphomannomutase and mannose-1-phosphate guanylyltransferase assay
- Type: functional
- Parameters: scale not given: direction of the effect not stated beside the values
- condition set: 10 µM
readout: Percent Effect
Write your answer as a measured quantity: the number, then the unit.

# Percent Effect of Cc1n[nH]c(C2CN(C(=O)c3cc(C4CC4)[nH]n3)CCO2)n1 (stereo unspecified) = -0.0979%

GET /value?item= `Cc1c[nH]c(CN(C)c2nc(C3CCCC3)nc3c2cnn3C)n1` &field=Percent Effect returns -3.01%

Entry `O=C(CCc1cccs1)N1CCC(Nc2cccnn2)CC1` , Percent Effect reported as 8.87%

For record Cc1nn(C)c2sc(C(=O)N3CCCC(n4ccnc4C)C3)cc12 (stereo unspecified) the listed Percent Effect is 2.82%

Notebook: COc1c(CNC2CCCc3ccccc32)c(C)nn1C (stereo unspecified) , Percent Effect read as 4.79%

The reported Percent Effect of the molecule Cc1cc(NC(=O)CN2CCCC2c2noc(C3CC3)n2)no1 (stereo unspecified) was 5.68%

Consider `Cc1ccc(C(=O)N2Cc3ccccc3C2)cc1N1CCNC1=O` . Its measured Percent Effect is 7.89%

For record `O=C(NCc1ccccn1)[C@H]1COC[C@H]2CN(Cc3ccoc3)C[C@H]21` the listed Percent Effect is -6.16%

The molecule `Cn1nc(C(=O)NCc2ccccn2)c2c1CCS(=O)(=O)C2` showed Percent Effect equal to -6.48%

Form field Percent Effect, entry O=C(c1cccnc1)N1CCCC(c2cc(C(F)F)n3ncnc3n2)C1 (stereo unspecified) : -5.53%

For reference, reported Percent Effect for CCN1CC(C(=O)NC(C)(C)CNC(=O)OC(C)(C)C)CC1=O (stereo unspecified) stands at -1.66%

====

- Species on record: Homo sapiens
- test protocol: To identify inhibition of the IFN signalling (Jak-Stat) pathway via expression of an eGFP reporter gene under the control of an IFN-stimulated response element (ISRE) containing MxA promoter.
- Type: functional
- Parameters: scale not given: direction of the effect not stated beside the values
- condition set: 30 µM
readout: Percent Effect (%)
Please respond with the number in % and leave the unit unwritten.

Lab note: measured Percent Effect of `Cc1csc(N2CCN(C(=O)CCn3cncn3)CC2)n1` was -0.236

Query `COCCNC(=O)NCc1ccc(OC(C)C)c(F)c1` yields Percent Effect of 2.01

The value of Percent Effect measured for the compound CC(O)CN1CCN(C(=O)c2cnn(-c3ccccc3F)c2)CC1 (configuration not stated) turned out to be 10.4

// sample Cc1nc(CN2CCOC(Cn3cncn3)C2)nc2ccccc12 (configuration not stated) , its Percent Effect was -20.1

GET /value?item= CCCN1CCN(C(=O)C(C)n2cc(Br)cn2)CC1 (configuration not stated) &field=Percent Effect returns -2.4

Documented Percent Effect of `O=C1N(c2ccc(Br)cc2)Cc2nc(=O)[nH]n21` : 7.62

Measured Percent Effect of O=C1N(Cc2ccccc2F)CCCC12CCN(C1CCSCC1)C2 (configuration not stated) : -10.4

Value of measured Percent Effect for the entry `Cc1ccccc1Oc1ncccc1CNS(C)(=O)=O` : 0.0503

Percent Effect measured on Cc1nc(COCc2cnc3n2CCN(C2CCC2)C3C)cs1 (configuration not stated) = -7.58

According to the records, this compound `O=C(NCCNc1ncccn1)N1CCN(Cc2cccnc2)CC1` displays Percent Effect of 2.94

get_value(item= CN(Cc1ccccc1O)C(=O)NC1CCCN(c2ncccn2)C1 (configuration not stated) , readout=Percent Effect) returns 26.3

Sample `Cc1cccc(Cn2ccc(NS(C)(=O)=O)n2)c1` ; Percent Effect observed: 0.107

====

Hi there, I'd appreciate the recorded Percent Effect for every entry that follows.
- tested on: Arginase-2, mitochondrial (Homo sapiens)
- Sequence (whole entry): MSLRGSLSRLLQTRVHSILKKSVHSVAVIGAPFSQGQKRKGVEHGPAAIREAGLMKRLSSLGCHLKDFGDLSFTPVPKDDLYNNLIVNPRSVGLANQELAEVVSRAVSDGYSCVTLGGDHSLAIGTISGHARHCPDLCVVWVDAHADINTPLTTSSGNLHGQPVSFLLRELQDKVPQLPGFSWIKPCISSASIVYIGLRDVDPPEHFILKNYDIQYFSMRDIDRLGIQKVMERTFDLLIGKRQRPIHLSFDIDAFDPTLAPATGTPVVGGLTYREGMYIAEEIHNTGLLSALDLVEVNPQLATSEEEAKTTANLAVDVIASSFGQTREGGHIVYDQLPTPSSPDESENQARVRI
- test protocol: in vitro enzyme assay to detect the production of urea directly proportional to the activity of Arginase II; also: in the data most compounds retested in dose-response had high values
- Format: functional
- Set-up: scale not given: direction of the effect not stated beside the values
- condition set: 33.3 µM
# unit: % | format: bare number

For reference, reported Percent Effect for `CN(C)C1CCN(C(=O)c2ccc(Cn3ccccc3=O)o2)CC1` stands at 0.924

# Percent Effect (compound: N#Cc1cccc(S(=O)(=O)NC2CCN(Cc3ccccc3)C2=O)c1 (stereo unspecified) ) is -6.84

Percent Effect measured on COc1ccc(C(C)=O)c(OCC(=O)NC(C)c2ccc(F)cc2)c1 (stereo unspecified) = 23.6

For this compound ( `Cc1nc(CN2CCc3ncnc(-c4ccc(F)cc4)c3CC2)cs1` ), measured Percent Effect is 9.87

Measured Percent Effect, CN(C)c1ncnc2c1CCN(CC1CCOC1)CC2 (stereo unspecified) : -2.87

Percent Effect recorded for this compound, O=C(CN1CCC(c2cccc(F)c2)C1)NCC(F)(F)F (stereo unspecified) , is -1.15

Quick note, Percent Effect for `CCOC(=O)c1sc(NC(=O)CN(C)S(C)(=O)=O)c(C#N)c1C` landed at 4.52

response.value for `Cn1ncc2c(NCCOc3ccc(F)cc3)nc(C3CCCC3)nc21` (field: Percent Effect) = 2.27

Lab book: Percent Effect of `COc1ccc(CN(C)Cc2nc3c(cnn3C)c(=O)[nH]2)cc1OC` noted as 2.8

The recorded Percent Effect for entry Fc1cccc(Oc2ccc(CNCC3CNc4ccnn4C3)cn2)c1 (stereo unspecified) equals 2.85

// sample Cc1cc(C)n(C2CN(CC(O)c3ccc4c(c3)OCO4)C2)n1 (stereo unspecified) , its Percent Effect was -2.85

====

- tested on: AMP-activated protein kinase, AMPK (Homo sapiens) (UniProt P54646+O43741+P54619+Q9UGJ0+Q9Y478+Q13131+Q9UGI9)
- test protocol: AMP-dependent Kinase enzyme assay. An in vitro enzyme assay that detects ADP turnover that is directly proportional to AMPK activity. This uses naive AMPK that is activated during the assay with MK-8722
- Assay type: functional
- Design: scale not given: direction of the effect not stated beside the values
- condition set: 30 µM
readout: Percent Effect
Entry format: amount then unit.

Notebook: `Cc1oc(C)c(C(=O)NCc2cccnc2N(C)C)c1C` , Percent Effect read as 4.37%

Briefly, Percent Effect measured for `CC(C)OCc1ncn2c1CN(Cc1ccc(F)cc1)CCC2` : 2.07%

Sure, the documented Percent Effect for `CNC(=O)Nc1cc(-c2ccc(Br)cc2)nn1CCO` is 0.242%

According to the records, this molecule CCc1cc(NCC(O)CN2CCCCC2)n2ncnc2n1 (configuration not stated) displays Percent Effect of 2.69%

// Percent Effect value for CSCC(C)(O)CNC(=O)c1cc(Br)ccc1Cl (configuration not stated) : -10.3%

// Percent Effect lookup, molecule = `Cc1nnc(N2CC[C@H]3C[C@H](C(=O)N4CCOCC4)O[C@H]3C2)s1` , result: 5.32%

Item: `O=C(NCCCN1CCOCC1)Nc1cnc2cc(Cl)ccc2c1O` | Percent Effect: 9.55%

Consider `COC(=O)c1cccc(C(=O)N2CCN(c3ccccc3F)CC2)n1` . Its measured Percent Effect is -7.33%

For Cn1ncc2c1C(COCC1CC1)CN(Cc1ccc(F)cc1)C2 (configuration not stated) the molecule record lists Percent Effect as 3.73%

For CCc1nc2n(n1)CC(NCC(=O)Nc1nccs1)CC2 (configuration not stated) the molecule record lists Percent Effect as -11.6%

// recorded Percent Effect for `C=C(Cl)CN1CCC(C(=O)c2cc(F)ccc2F)CC1` : 5.79%

According to the records, this molecule `CCN(CC)c1ccc(NS(=O)(=O)c2cnn(C)c2)cn1` displays Percent Effect of -5.27%
